# Assayed System: Human recombinant enteropeptidase (Homo sapiens, UniProt P98073)
# Construct: purchased BIO Vision Inc. 7529-50
# Sequence (P98073 whole entry): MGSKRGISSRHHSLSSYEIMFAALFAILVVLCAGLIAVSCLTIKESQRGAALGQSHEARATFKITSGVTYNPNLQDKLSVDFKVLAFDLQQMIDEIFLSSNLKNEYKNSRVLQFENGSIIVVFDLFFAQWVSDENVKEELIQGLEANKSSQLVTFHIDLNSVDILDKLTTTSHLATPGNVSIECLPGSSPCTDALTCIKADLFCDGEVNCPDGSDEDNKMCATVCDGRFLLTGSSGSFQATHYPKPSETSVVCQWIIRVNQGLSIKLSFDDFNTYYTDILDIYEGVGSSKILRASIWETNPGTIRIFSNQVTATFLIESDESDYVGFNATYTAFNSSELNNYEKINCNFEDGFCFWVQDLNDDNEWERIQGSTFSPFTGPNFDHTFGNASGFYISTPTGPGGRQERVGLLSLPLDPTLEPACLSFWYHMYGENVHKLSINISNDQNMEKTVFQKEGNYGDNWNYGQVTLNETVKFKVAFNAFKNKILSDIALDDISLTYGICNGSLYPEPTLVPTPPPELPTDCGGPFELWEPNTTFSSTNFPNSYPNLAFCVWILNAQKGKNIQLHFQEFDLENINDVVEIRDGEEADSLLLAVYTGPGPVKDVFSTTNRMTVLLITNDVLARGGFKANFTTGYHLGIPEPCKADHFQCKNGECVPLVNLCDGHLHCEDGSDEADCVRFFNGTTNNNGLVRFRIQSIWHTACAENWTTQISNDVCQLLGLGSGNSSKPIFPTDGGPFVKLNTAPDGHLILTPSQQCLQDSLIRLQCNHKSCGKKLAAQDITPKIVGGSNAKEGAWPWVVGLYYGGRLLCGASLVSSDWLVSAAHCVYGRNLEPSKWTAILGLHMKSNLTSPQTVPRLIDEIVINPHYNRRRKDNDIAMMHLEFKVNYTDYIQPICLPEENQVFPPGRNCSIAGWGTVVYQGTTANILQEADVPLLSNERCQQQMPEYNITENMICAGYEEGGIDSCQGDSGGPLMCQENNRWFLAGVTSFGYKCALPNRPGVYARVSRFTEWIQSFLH
# Method Summary: Human enteropeptidase inhibition test
# Format: biochemical
# Experimental Parameters: compound concentration 10 nM; 20 minutes after reaction start; read-out: Inhibition rate (enteropeptidase)
Structures can show the parent of a compound that is named as a salt.
Metric Name: inhibition at 0.01 µM

Reference set, count: 4
Compound	inhibition at 0.01 µM
N=C(N)Nc1ccc(C(=O)Oc2cccc(CNS(=O)(=O)N(CCOCCOCCN([C@@H](CC(=O)O)C(=O)O)S(=O)(=O)NCc3cccc(OC(=O)c4ccc(NC(=N)N)cc4)c3)[C@@H](CC(=O)O)C(=O)O)c2)cc1 [25-(b)]	≥ 50%
N=C(N)Nc1ccc(C(=O)Oc2ccc(CNS(=O)(=O)N(CCOCCOCCOCCOCCN([C@@H](CC(=O)O)C(=O)O)S(=O)(=O)NCc3ccc(OC(=O)c4ccc(NC(=N)N)cc4)cc3)[C@@H](CC(=O)O)C(=O)O)cc2)cc1 [4-(b), trifluoroacetate]	≥ 50%
N=C(N)Nc1ccc(C(=O)Oc2cccc(C(=O)N(CCOCCN(C(=O)c3cccc(OC(=O)c4ccc(NC(=N)N)cc4)c3)[C@@H](CC(=O)O)C(=O)O)[C@@H](CC(=O)O)C(=O)O)c2)cc1 [30-(a)]	≥ 50%
N=C(N)Nc1ccc(C(=O)Oc2ccc(CNS(=O)(=O)N(CCOCCOCCN([C@@H](CC(=O)O)C(=O)O)S(=O)(=O)NCc3ccc(OC(=O)c4ccc(NC(=N)N)cc4)cc3)[C@@H](CC(=O)O)C(=O)O)cc2)cc1 [2-(b), trifluoroacetate]	≥ 50%

Ask: // query inhibition at 0.01 µM value for entry N=C(N)Nc1ccc(C(=O)Oc2ccc(CNS(=O)(=O)N(CCOCCN([C@@H](CC(=O)O)C(=O)O)S(=O)(=O)NCc3ccc(OC(=O)c4ccc(NC(=N)N)cc4)cc3)[C@@H](CC(=O)O)C(=O)O)cc2)cc1 [1-(b)]
Result: ≥ 50%

Ask: What value of inhibition at 0.01 µM has been recorded for this entry: N=C(N)Nc1ccc(C(=O)Oc2ccc(COC(=O)N(CCCCCCCCCCCCN(C(=O)OCc3ccc(OC(=O)c4ccc(NC(=N)N)cc4)cc3)C(CC(=O)O)C(=O)O)C(CC(=O)O)C(=O)O)cc2)cc1 (stereo not drawn) [11-(b)]
Result: ≥ 50%

---

# Assayed System: Human recombinant enteropeptidase (Homo sapiens)
# Construct: purchased BIO Vision Inc. 7529-50
# Method Summary: Human enteropeptidase inhibition test
# Assay type: biochemical
# Experimental Parameters: read-out: Inhibition rate (enteropeptidase)
Where a name gives a salt, the structure may show the parent alone.
Catalogue of inhibition at 0.01 µM values

Molecule	Assayed System	inhibition at 0.01 µM
N=C(N)Nc1ccc(C(=O)Oc2ccc(CNS(=O)(=O)N(CCOCCOCCOCCOCCOCCOCCN([C@@H](CC(=O)O)C(=O)O)S(=O)(=O)NCc3ccc(OC(=O)c4ccc(NC(=N)N)cc4)cc3)[C@@H](CC(=O)O)C(=O)O)cc2)cc1 [6-(b), trifluoroacetate]	Human recombinant enteropeptidase (Homo sapiens)	≥ 50%
N=C(N)Nc1ccc(C(=O)Oc2ccc(COC(=O)N(Cc3cccc(C(=O)O)c3)[C@@H](CC(=O)O)C(=O)NCCOCCOCCOCCOCCNC(=O)[C@H](CC(=O)O)N(Cc3cccc(C(=O)O)c3)C(=O)OCc3ccc(OC(=O)c4ccc(NC(=N)N)cc4)cc3)cc2)cc1	Human recombinant enteropeptidase (Homo sapiens)	≥ 50%
N=C(N)Nc1ccc(C(=O)Oc2ccc(COC(=O)N(Cc3cccc(C(=O)NCCOCCOCCOCCOCCNC(=O)c4cccc(CN(C(=O)OCc5ccc(OC(=O)c6ccc(NC(=N)N)cc6)cc5)[C@@H](CC(=O)O)C(=O)O)c4)c3)[C@@H](CC(=O)O)C(=O)O)cc2)cc1	Human recombinant enteropeptidase (Homo sapiens)	≥ 50%

Ask: Dear colleague, I am looking for the recorded inhibition at 0.01 µM of the following molecule: "N=C(N)Nc1ccc(C(=O)Oc2ccc(CNS(=O)(=O)N(Cc3cccc(C(=O)NCCOCCOCCOCCOCCNC(=O)c4cccc(CN([C@@H](CC(=O)O)C(=O)O)S(=O)(=O)NCc5ccc(OC(=O)c6ccc(NC(=N)N)cc6)cc5)c4)c3)[C@@H](CC(=O)O)C(=O)O)cc2)cc1"
Result: ≥ 50%

Ask: Any idea what its inhibition at 0.01 µM is? The molecule is N=C(N)Nc1ccc(C(=O)Oc2ccc(CNS(=O)(=O)N(CCOCCOCCOCCOCCOCCN([C@@H](CC(=O)O)C(=O)O)S(=O)(=O)NCc3ccc(OC(=O)c4ccc(NC(=N)N)cc4)cc3)[C@@H](CC(=O)O)C(=O)O)cc2)cc1 [5-(b), trifluoroacetate]
Result: ≥ 50%

---

Parameter: inhibition at 0.1 µM. Scope: all listed entries.
# Assayed System: Human recombinant enteropeptidase (Homo sapiens, UniProt P98073)
# Construct: purchased BIO Vision Inc. 7529-50
# Method Summary: Human enteropeptidase inhibition test
# Assay type: biochemical
# Experimental Parameters: compound concentration 100 nM; 20 minutes after reaction start; read-out: Inhibition rate (enteropeptidase)

Compound	Metric Name	Result
N=C(N)Nc1ccc(C(=O)Oc2cccc(C(=O)N[C@@H](CC(=O)O)C(=O)O)c2)cc1 [Reference Example 87-(d)]	inhibition at 0.1 µM	≥ 50%
N=C(N)Nc1ccc(C(=O)Oc2ccc(CN(CCOCCOCCN(Cc3ccc(OC(=O)c4ccc(NC(=N)N)cc4)cc3)S(=O)(=O)N[C@@H](CC(=O)O)C(=O)O)S(=O)(=O)N[C@@H](CC(=O)O)C(=O)O)cc2)cc1	inhibition at 0.1 µM	≥ 50%

Let us examine a further case.
Ask: Entry N=C(N)Nc1ccc(C(=O)Oc2ccc(COC(=O)N[C@@H](CC(=O)O)C(=O)O)cc2)cc1 [Reference Example 31-(b)] : reported inhibition at 0.1 µM = ?
Result: ≥ 50%

---

Documented inhibition at 0.1 µM across a set of molecules
# Assayed System: Human recombinant enteropeptidase (Homo sapiens, UniProt P98073)
# Construct: purchased BIO Vision Inc. 7529-50
# Method Summary: Human enteropeptidase inhibition test
# Assay type: biochemical
# Experimental Parameters: compound concentration 100 nM; 20 minutes after reaction start; read-out: Inhibition rate (enteropeptidase)
Where a name gives a salt, the structure may show the parent alone.

Some solved entries appear below for comparison.
Molecule	Result
N=C(N)Nc1ccc(C(=O)Oc2ccc(CNS(=O)(=O)N(CCOCCOCCN(C(CC(=O)O)CC(=O)O)S(=O)(=O)NCc3ccc(OC(=O)c4ccc(NC(=N)N)cc4)cc3)C(CC(=O)O)CC(=O)O)cc2)cc1	≥ 50%
N=C(N)Nc1ccc2c(c1)CCCOc1c(cccc1C(=O)N(CCOCCOCCOCCN(C(=O)c1cccc3c1OCCCc1cc(NC(=N)N)ccc1C(=O)O3)[C@@H](CC(=O)O)C(=O)O)[C@@H](CC(=O)O)C(=O)O)OC2=O	≥ 50%
N=C(N)Nc1ccc2c(c1)CCCOc1c(cccc1C(=O)N(CCOCCOCCN(C(=O)c1cccc3c1OCCCc1cc(NC(=N)N)ccc1C(=O)O3)C(CC(=O)O)C(=O)O)C(CC(=O)O)C(=O)O)OC2=O (centres unmarked) [19-(b), trifluoroacetate]	≥ 50%
N=C(N)Nc1ccc(C(=O)Oc2ccc(CNS(=O)(=O)N(CCCN([C@@H](CC(=O)O)C(=O)O)S(=O)(=O)NCc3ccc(OC(=O)c4ccc(NC(=N)N)cc4)cc3)[C@@H](CC(=O)O)C(=O)O)cc2)cc1	≥ 50%

Turning now to a further molecule:
Ask: Could you tell me which inhibition at 0.1 µM is on file for "N=C(N)Nc1ccc(C(=O)Oc2cccc(C(=O)N(CCOCCN(C(=O)c3cccc(OC(=O)c4ccc(NC(=N)N)cc4)c3)[C@@H](CC(=O)O)C(=O)O)[C@@H](CC(=O)O)C(=O)O)c2)cc1" ?
Result: ≥ 50%

---

# Assayed System: Human recombinant enteropeptidase (Homo sapiens, UniProt P98073)
# Construct: purchased BIO Vision Inc. 7529-50
# Method Summary: Human enteropeptidase inhibition test
# Assay type: biochemical
# Experimental Parameters: compound concentration 1 nM; 20 minutes after reaction start; read-out: Inhibition rate (enteropeptidase)
# Protocol: (Test Example 1): Human Enteropeptidase Inhibition Test Human recombinant enteropeptidase (manufactured by BIO Vision Inc., catalog no.: 7529-50) was diluted with an assay buffer (50 mM tricine (pH8.0), 0.01 W/V % Tween 20, 10 mM CaCl2) to prepare an ng/mL enzyme solution. […] Fluorescence intensities at excitation wavelength 485 nm and fluorescence wavelength 535 nm were measured by using a fluorescence plate reader (Flex station 3) (Test compound addition group). […]
Counter-ions that a name gives are not always drawn.
The following compounds are shown together with reported inhibition at 0.001 µM values.

Compound	Assayed System	Result
N=C(N)Nc1ccc2c(c1)CCCOc1c(cccc1C(=O)N(CCOCCOCCN(C(=O)c1cccc3c1OCCCc1cc(NC(=N)N)ccc1C(=O)O3)[C@@H](CC(=O)O)C(=O)O)[C@@H](CC(=O)O)C(=O)O)OC2=O [20-(b), trifluoroacetate]	Human recombinant enteropeptidase (Homo sapiens, UniProt P98073)	≥ 50%
N=C(N)Nc1ccc(C(=O)Oc2ccc(CNS(=O)(=O)N(CCOCCOCCOCCN([C@@H](CC(=O)O)C(=O)O)S(=O)(=O)NCc3ccc(OC(=O)c4ccc(NC(=N)N)cc4)cc3)[C@@H](CC(=O)O)C(=O)O)cc2)cc1	Human recombinant enteropeptidase (Homo sapiens, UniProt P98073)	≥ 50%

Next up:
Ask: Which inhibition at 0.001 µM is reported for this compound? "N=C(N)Nc1ccc(C(=O)Oc2cccc(C(=O)N(CCOCCN(C(=O)c3cccc(OC(=O)c4ccc(NC(=N)N)cc4)c3)[C@@H](CC(=O)O)C(=O)O)[C@@H](CC(=O)O)C(=O)O)c2)cc1"
Result: ≥ 50%
